- System: bluegrass (annual bluegrass, Poa annua)
- assay-overview: Test D pre-/postemergence: bluegrass
- Type: in vivo
- stated-conditions: Postemergence; 16 g ai/ha; scale 0 to 100
quantity-kind: Plant response rating, Bluegrass
Reply briefly: the number, and no unit.

Query block: Recall and state the measured Plant response rating, Bluegrass for Cc1nn(-c2ccc(F)c(C(F)(F)F)c2)nc1Cc1ccnc(C(F)(F)F)c1 .
Result block: 15

Query block: Recall and state the measured Plant response rating, Bluegrass for COc1nn(-c2ccc(C(F)(F)F)cc2)nc1Cc1ccnc(C(F)(F)F)c1 .
Result block: 0

Query block: Recall and state the measured Plant response rating, Bluegrass for Cc1nn(-c2ccc(C(F)(F)F)c(F)c2)nc1Oc1ccnc(C(F)(F)F)c1 .
Result block: 5

Query block: Recall and state the measured Plant response rating, Bluegrass for Cc1nn(-c2ccc(C(F)(F)F)cn2)nc1Oc1ccnc(C(F)(F)F)c1 .
Result block: 20

All values here come from patent US9302999B2.
